Sequence of the target: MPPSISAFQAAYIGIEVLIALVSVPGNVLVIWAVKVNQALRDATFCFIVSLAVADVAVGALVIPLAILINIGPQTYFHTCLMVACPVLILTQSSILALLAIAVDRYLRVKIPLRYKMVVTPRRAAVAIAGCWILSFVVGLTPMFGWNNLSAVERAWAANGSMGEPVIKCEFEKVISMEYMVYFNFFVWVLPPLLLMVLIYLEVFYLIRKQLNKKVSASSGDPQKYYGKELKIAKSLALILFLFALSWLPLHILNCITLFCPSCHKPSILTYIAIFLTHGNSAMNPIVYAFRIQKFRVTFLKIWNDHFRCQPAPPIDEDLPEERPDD
Counter-ions that a name gives are not always drawn.
MEASUREMENT KIND: Ki (nM)

compound=Cc1cc(-c2c(-c3cccc(C#N)c3)nn3ccc(N)nc23)cc(N(C)C)n1 reading=144

1. Cc1cc(-c2c(-c3cccc(C#N)c3)nn3ccc(C(=O)NC(C)(C)CN)nc23)cc(Cl)n1
2. Cc1cc(-c2c(-c3cccc(C#N)c3)nn3ccc(NC(=O)N[C@H]4CCNC4)nc23)cc(Cl)n1 [Example 31.1, trifluoroacetate]
3. Cc1cc(-c2c(-c3cccc(C#N)c3)nn3ccc(N[C@@H]4CCOC4)nc23)cc(Cl)n1
4. Cc1cc(-c2c(-c3cccc(C#N)c3)nn3ccc(NS(N)(=O)=O)nc23)cc(Cl)n1
Ask: Which order do these items take when sorted by rising Ki? List them. Thanks in advance for listing the labels in the requested order.
Result: 1, 3, 2, 4
(1: 44 nM, 3: 87 nM, 2: 200 nM, 4: 307 nM)

Just for reference, patent US20230203041A1 is where these values come from.
